Species on record: Rattus norvegicus
ASSAY_PROCEDURE: In vitro for growth hormone release by using rat pituitary cell assay.
Type: functional
EXPERIMENTAL_SETUP: Pituitary gland cell
OBSERVATION_TYPE: log10 EC50 (log10 of the value in nM)
Could you please treat all values as log10 of EC50 in nM?

Sample answers from the record:
COMPOUND | log10 EC50
C[C@H](O)CNC(C)(C)CC(=O)N[C@H](Cc1c[nH]c2ccccc12)C(=O)N1CCC2(CCc3ccccc32)CC1 | 0.41
C[C@@H](N)C(=O)N[C@H](Cc1c[nH]c2ccccc12)C(=O)N1CCC2(CCc3ccccc32)CC1 | 3.00
NCC(=O)N[C@H](Cc1c[nH]c2ccccc12)C(=O)N1CCC2(CCc3ccccc32)CC1 | 3.30
CC(C)(N)CC(=O)N[C@@H]1CCc2ccccc2N(Cc2ccc(-c3ccccc3-c3nn[nH]n3)cc2)C1=O | 1.78
CC(C)(N)C(=O)N[C@@H](Cc1c[nH]c2ccccc12)C(=O)N1CCC2(CCc3ccccc32)CC1 | 4.00
O=C(NC(Cc1c[nH]c2ccccc12)C(=O)N1CCC2(CCc3ccccc32)CC1)NC1CN2CCC1CC2 (stereo not given) | 1.70
NC1(C(=O)N[C@H](Cc2c[nH]c3ccccc23)C(=O)N2CCC3(CCc4ccccc43)CC2)CC1 | 3.32
O=C(N[C@H](Cc1c[nH]c2ccccc12)C(=O)N1CCC2(CCc3ccccc32)CC1)C1CCNCC1 | 2.00

Task item: # input compound: C[C@H](O)CNC(C)(C)C(=O)N[C@H](Cc1c[nH]c2ccccc12)C(=O)N1CCC2(CCc3ccccc32)CC1 ; wanted: its log10 EC50
Reply: 2.85

Task item: Same question for C[C@@](N)(CO)C(=O)N[C@H](Cc1c[nH]c2ccccc12)C(=O)N1CCC2(CCc3ccccc32)CC1 please.
Reply: 1.68

====

Species on record: Rattus norvegicus
ASSAY_PROCEDURE: In vitro for growth hormone release by using rat pituitary cell assay.
Type: functional
EXPERIMENTAL_SETUP: Pituitary gland cell
OBSERVATION_TYPE: EC50 (nM)
Number only, in nM; omit the unit.

Here are 5 compounds together with their reported answers.
COMPOUND | EC50, nM
O=C(N[C@H](Cc1c[nH]c2ccccc12)C(=O)N1CCC2(CCc3ccccc32)CC1)C1CCCCN1 (stereo partly drawn) | 1900
CC(C)(CC(=O)N[C@H](Cc1c[nH]c2ccccc12)C(=O)N1CCC2(CCc3ccccc32)CC1)NC[C@H](O)CO | 16
O=C(N[C@H](Cc1c[nH]c2ccccc12)C(=O)N1CCC2(CCc3ccccc32)CC1)C1CCCNC1 (stereo partly drawn) | 90
C[C@H](N)C(=O)N[C@H](Cc1c[nH]c2ccccc12)C(=O)N1CCC2(CCc3ccccc32)CC1 | 840
CC(C)(N)C(=O)N[C@H](Cc1c[nH]c2ccccc12)C(=O)N1CCC2(CCc3ccccc32)CC1 | 14

Task item: Request the reported EC50 associated with C[C@](N)(CO)C(=O)N[C@H](Cc1c[nH]c2ccccc12)C(=O)N1CCC2(CCc3ccccc32)CC1
Reply: 600

Task item: Now try NC1(C(=O)N[C@H](Cc2c[nH]c3ccccc23)C(=O)N2CCC3(CCc4ccccc43)CC2)CCCC1 .
Reply: 2600

Task item: // next record CC(C)(N)CC(=O)N[C@H](Cc1c[nH]c2ccccc12)C(=O)N1CCC2(CCc3ccccc32)CC1
Reply: 76

====

ASSAY_PROCEDURE: pKa was determined
Type: physicochemical
# pKa annotations
Please give the numeric answer without any surrounding text.

SMILES_INPUT | pKa
NC1(C(=O)N[C@H](Cc2c[nH]c3ccccc23)C(=O)N2CCC3(CCc4ccccc43)CC2)CC1 | 5.9

Okay, next one:
Task item: Look up pKa for this compound: CC(C)(N)C(=O)N[C@H](Cc1c[nH]c2ccccc12)C(=O)N1CCC2(CCc3ccccc32)CC1
Reply: 7.9

The reported numbers originate from ChEMBL document CHEMBL1129162.
